- target-or-system: GID4 (Homo sapiens)
- Construct: residues 116-300; N-terminal Strep-SUMO-3C-6xHis-Avi, HRV-3C cleaved, Avi-tag kept and biotinylated; E. coli BL21(DE3)
- Sequence (Q8IVV7 116-300): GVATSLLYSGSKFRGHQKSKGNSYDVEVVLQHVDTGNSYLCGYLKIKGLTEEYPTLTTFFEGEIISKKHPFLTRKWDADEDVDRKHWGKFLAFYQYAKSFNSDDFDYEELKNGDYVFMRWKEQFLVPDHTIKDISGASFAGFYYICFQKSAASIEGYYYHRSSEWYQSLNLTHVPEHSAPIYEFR
- test-description: SPR
- Assay type: binding
- experimental-setup: read-out: KD
// reported Kd for each item listed
quantity-kind: Kd (µM)

{"compound": "Cc1ccc(-c2cc(F)cc(N=C(N)N3CCCCC3C)c2)o1 (stereo not shown)", "quantity-kind": "Kd", "endpoint-value": 0.94}
{"compound": "CC1CCN(C(N)=Nc2cc(F)cc(Cl)c2)CC1", "quantity-kind": "Kd", "endpoint-value": 2.94}
{"compound": "CC1CCCCN1C(N)=Nc1cc(F)cc(Cl)c1 (stereo not shown)", "quantity-kind": "Kd", "endpoint-value": 2.87}
{"compound": "CC1CCCN(C(N)=Nc2cc(F)cc(Cl)c2)C1 (stereo not shown)", "quantity-kind": "Kd", "endpoint-value": 4.12}
{"compound": "NC(=Nc1cc(F)cc(Cl)c1)N1CCCCC1", "quantity-kind": "Kd", "endpoint-value": 8.16}
{"compound": "NC(=Nc1cccc(Cl)c1)N1CCCCC1", "quantity-kind": "Kd", "endpoint-value": 23}
{"compound": "NC(=Nc1cccc(F)c1)N1CCCCC1", "quantity-kind": "Kd", "endpoint-value": 12}

====

- target-or-system: GID4 (Homo sapiens)
- Construct: residues 116-300, N-terminal 6xHis-SUMO tag (DSF construct)
- Set-up: Differential scanning fluorimetry, thermal shift of GID4
- experimental-setup: binder
- Sequence (Q8IVV7 whole entry, the tested form may be a part): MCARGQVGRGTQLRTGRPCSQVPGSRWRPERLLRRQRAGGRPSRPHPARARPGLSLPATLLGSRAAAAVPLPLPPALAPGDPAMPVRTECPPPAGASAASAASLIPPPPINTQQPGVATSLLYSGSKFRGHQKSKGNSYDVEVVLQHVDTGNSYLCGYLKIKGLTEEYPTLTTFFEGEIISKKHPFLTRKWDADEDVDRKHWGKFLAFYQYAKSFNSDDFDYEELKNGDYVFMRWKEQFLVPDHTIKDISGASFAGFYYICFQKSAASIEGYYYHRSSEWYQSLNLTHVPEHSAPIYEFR
Define the label as class 1 when ΔTm by DSF (°C) is strictly less than 4 °C and as class 0 in all remaining cases.

{"compound": "COC1CCCN(C(=O)c2cc(-c3cc(F)cc(N=C(N)N4CCC(C)(C)CC4)c3)oc2C)C1 (racemic)", "target-or-system": "GID4 (Homo sapiens)", "label-class": "class 0"}
{"compound": "NC(=Nc1cc(F)cc(Cl)c1)N1CCCCC1", "target-or-system": "GID4 (Homo sapiens)", "label-class": "class 1"}
{"compound": "CC(=O)N1CCN(CC2CCCN(C(=O)c3cc(-c4cc(F)cc(N=C(N)N5CCC(C)(C)CC5)c4)oc3C)C2)CC1 (racemic)", "target-or-system": "GID4 (Homo sapiens)", "label-class": "class 0"}
{"compound": "CC(=O)N1CCN(CC2CCN(C(=O)c3cc(-c4cc(F)cc(N=C(N)N5CCC(C)(C)CC5)c4)oc3C)CC2)CC1", "target-or-system": "GID4 (Homo sapiens)", "label-class": "class 0"}
{"compound": "CC1CCN(C(N)=Nc2cc(F)cc(Cl)c2)CC1", "target-or-system": "GID4 (Homo sapiens)", "label-class": "class 1"}
{"compound": "Cc1oc(-c2cc(F)cc(/N=C(/N)N3CCC(C)(C)CC3)c2)cc1C(=O)N1CCN(C)CC1", "target-or-system": "GID4 (Homo sapiens)", "label-class": "class 0"}
{"compound": "Cc1ccc(-c2cc(F)cc(N=C(N)N3CCCCC3C)c2)o1 (centres unmarked)", "target-or-system": "GID4 (Homo sapiens)", "label-class": "class 0"}
{"compound": "NC(=Nc1cccc(F)c1)N1CCCCC1", "target-or-system": "GID4 (Homo sapiens)", "label-class": "class 1"}
{"compound": "CNC(=O)c1cc(-c2cc(F)cc(N=C(N)N3CCC(C)(C)CC3)c2)oc1C", "target-or-system": "GID4 (Homo sapiens)", "label-class": "class 0"}
{"compound": "Cc1oc(-c2cc(F)cc(/N=C(/N)N3CCC(C)(C)CC3)c2)cc1C(=O)N1CCOCC1", "target-or-system": "GID4 (Homo sapiens)", "label-class": "class 0"}
{"compound": "NC(=Nc1ccccc1)N1CCCCC1", "target-or-system": "GID4 (Homo sapiens)", "label-class": "class 1"}
{"compound": "Cc1oc(-c2cc(F)cc(N=C(N)N3CCC(C)(C)CC3)c2)cc1C(=O)N(C)C", "target-or-system": "GID4 (Homo sapiens)", "label-class": "class 0"}
{"compound": "COCCOCCC1CCCN(C(=O)c2cc(-c3cc(F)cc(N=C(N)N4CCC(C)(C)CC4)c3)oc2C)C1 (racemic)", "target-or-system": "GID4 (Homo sapiens)", "label-class": "class 0"}
{"compound": "NC(=Nc1cccc(Cl)c1)N1CCCCC1", "target-or-system": "GID4 (Homo sapiens)", "label-class": "class 1"}
{"compound": "CC1CCCN(C(N)=Nc2cc(F)cc(Cl)c2)C1 (centres unmarked)", "target-or-system": "GID4 (Homo sapiens)", "label-class": "class 1"}
{"compound": "Cc1oc(-c2cc(F)cc(N=C(N)N3CCC(C)(C)CC3)c2)cc1C(=O)N1CCCCC1", "target-or-system": "GID4 (Homo sapiens)", "label-class": "class 0"}
{"compound": "CC1CCCCN1C(N)=Nc1cc(F)cc(Cl)c1 (centres unmarked)", "target-or-system": "GID4 (Homo sapiens)", "label-class": "class 1"}
